- System: HCT-116 colon
- test_protocol: NCI tumour cell line growth inhibition, 48 h
The reader will find reported TGI values listed item by item below.
Your answer is read as µM, so omit the unit and give the number.

Field: example entries. Status: answers known.
{"compound": "O=C(Nc1nc2ccc(OC(F)(F)F)cc2s1)c1ccc(F)cc1", "property_label": "TGI", "result_value": 10.1}
{"compound": "Cc1cc(C)c([O-])c(-[n+]2c(-c3ccccc3)cc(-c3ccccc3)cc2-c2ccccc2)c1", "property_label": "TGI", "result_value": 10.9}
{"compound": "CC1CCC2C(C)C(OC(=O)CCC(=O)O)OC3OC4(C)CCC1C32OO4 (stereo not given)", "property_label": "TGI", "result_value": 16.3}
{"compound": "NN/C(=N\\S(=O)(=O)c1cc(S(=O)(=O)c2ccccc2)cs1)Nc1ccc(Cl)cc1", "property_label": "TGI", "result_value": 74.6}
{"compound": "C[Si](C)(C)CCOCN(C(=O)C1=CCC2(CC1)OCCO2)c1ccccc1I", "property_label": "TGI", "result_value": 44.8}

Continue with the next compound.
## Input What does the record list as TGI for CC(O)C1(O)C(O)CC(OC2c3cc4c(c(O)c3[C@@H]3C[C@@]2(C)OC32C=c3cc[nH]c3=N2)C(=O)c2cccc(O)c2C4=O)OC1C (stereo not given in full) ?
## Output 3.31

====

Readings of TGI for the listed compounds
- Tested on: HCC-2998 colon
- test_protocol: NCI tumour cell line growth inhibition, 48 h

Worked cases, answers included:
{"compound": "Cc1cc(C)c([O-])c(-[n+]2c(-c3ccccc3)cc(-c3ccccc3)cc2-c2ccccc2)c1", "property_label": "TGI", "result_value": "13.6 µM"}
{"compound": "NC(=S)NN=Cc1ccccc1OCc1cccc(COc2ccccc2C=NNC(N)=S)n1", "property_label": "TGI", "result_value": "> 100 µM"}
{"compound": "COC1(OC)CCC2(C)OC(c3ccccc3)C1O2 (stereo not given)", "property_label": "TGI", "result_value": "> 100 µM"}

## Input Param item = `CCOc1cc(CC[N+](C)(C)C)c2c(ccc3ccc(OC)c(OC)c32)c1OC` ; retrieve measured TGI.
## Output > 100 µM

## Input Given the compound `CCNCCS(=O)(=O)NC[C@@]1(c2ccccc2)SC(NC(=O)C(C)(C)C)=NN1C(=O)C(C)(C)C` , what is its reported TGI?
## Output > 51.2 µM

====

Each entry below carries its reported TGI.
- Test system: HCC-2998 colon
- test_protocol: NCI tumour cell line growth inhibition, 48 h

Solved cases below.
{"compound": "Cn1cc(Nc2nccc(-c3ccc4c(c3)CN(C3COC3)CC[C@H]4NC(=O)c3cn(C(C)(C)C)nn3)n2)cn1", "TGI": "> 100 µM"}
{"compound": "O=C(CCl)N1CCN(c2ccccc2)CC1", "TGI": "32.2 µM"}
{"compound": "O=C(NCCc1ccccn1)c1ccc2cc(C(=O)N3CC(CCl)c4ccc([N+](=O)[O-])cc43)[nH]c2c1 (stereo not given)", "TGI": "> 100 µM"}

Let's switch to this compound now.
## Input Observed TGI on HCC-2998 colon for `Oc1c(Cl)cc(Cl)c(Cl)c1Cc1c(O)c(Cl)cc(Cl)c1Cl` , please.
## Output 12.9 µM
